The measurements presented in this section are drawn from patent US6399615B1.

target: farnesyl protein transferase (Homo sapiens, UniProt P49354+P49356); test: FPT IC50 (inhibition of farnesyl protein transferase, in vitro enzyme assay)
Measurement label: IC50 (nM)

>  <Smiles code>
O=C(O)c1ccccc1CC(=O)N1CCC([C@H]2c3ncc(Br)cc3CCc3cc(Cl)cc(Br)c32)CC1

>  <Unit>
nM

>  <Value>
66

$$$$

[A] COC(=O)CNC(=O)Cc1ccc(CC(=O)N2CCC([C@H]3c4ncc(Br)cc4CCc4cc(Cl)cc(Br)c43)CC2)cc1
[B] CC(C)(C)OC(=O)C[C@H]1CC[C@H](C(=O)N2CCC([C@H]3c4ncc(Br)cc4CCc4cc(Cl)cc(Br)c43)CC2)CC1
[C] O=C(Cc1ccccc1C(=O)N1CCOCC1)N1CCC([C@H]2c3ncc(Br)cc3CCc3cc(Cl)cc(Br)c32)CC1
**Q:** Output the entries ranked by IC50 from maximum down to minimum. Returns: the labels arranged in the requested order.
**A:** B, C, A
(B: 91 nM, C: 56 nM, A: 5.3 nM)

====

Parameter: melting point. Scope: all listed entries.

Solved entries (count: 5):
>  <Molecule>
NC(=O)CC1CCC(CC(=O)N2CCC(C3c4ncc(Br)cc4CCc4cc(Cl)cc(Br)c43)CC2)CC1 (stereo not shown)

>  <melting point>
103 to 110 °C

$$$$
>  <Molecule>
NC(=O)Cc1cccc(CC(=O)N2CCC([C@H]3c4ncc(Br)cc4CCc4cc(Cl)cc(Br)c43)CC2)c1

>  <melting point>
119 to 125 °C

$$$$
>  <Molecule>
O=C(Cc1ccc(CC(=O)N2CCC([C@H]3c4ncc(Br)cc4CCc4cc(Cl)cc(Br)c43)CC2)cc1)NCCO

>  <melting point>
94 to 100 °C

$$$$
>  <Molecule>
CC(C)(C)OC(=O)C=C1CCC(=CC(=O)N2CCC([C@H]3c4ncc(Br)cc4CCc4cc(Cl)cc(Br)c43)CC2)CC1

>  <melting point>
113 to 117 °C

$$$$
>  <Molecule>
O=C(NCc1ccncc1)c1ccccc1CC(=O)N1CCC([C@H]2c3ncc(Br)cc3CCc3cc(Cl)cc(Br)c32)CC1

>  <melting point>
134 to 138 °C

$$$$

**Q:** Need melting point, item CC(C)(C)OC(=O)C[C@H]1CC[C@@H](C(=O)N2CCC([C@H]3c4ncc(Br)cc4CCc4cc(Cl)cc(Br)c43)CC2)CC1
**A:** 98 to 102 °C

**Q:** What value of measured melting point is listed for O=C(O)C=C1CCC(=CC(=O)N2CCC([C@H]3c4ncc(Br)cc4CCc4cc(Cl)cc(Br)c43)CC2)CC1 ?
**A:** 161 to 169 °C

====

biological target: farnesyl protein transferase (Homo sapiens, UniProt P49354+P49356); test: FPT IC50 (inhibition of farnesyl protein transferase, in vitro enzyme assay); format: biochemical
pIC50: −log10 of the molar value.
Measurement label: pIC50

>  <Molecule>
NC(=O)CC1CCC(CC(=O)N2CCC(C3c4ncc(Br)cc4CCc4cc(Cl)cc(Br)c43)CC2)CC1 (stereo not shown)

>  <pIC50>
8.20

$$$$
>  <Molecule>
NC(=O)[C@@H]1C[C@H]1C(=O)N1CCC([C@H]2c3ncc(Br)cc3CCc3cc(Cl)cc(Br)c32)CC1

>  <pIC50>
8.08

$$$$
>  <Molecule>
NC(=O)Cc1cccc(CC(=O)N2CCC([C@H]3c4ncc(Br)cc4CCc4cc(Cl)cc(Br)c43)CC2)c1

>  <pIC50>
8.20

$$$$
>  <Molecule>
O=C(O)C[C@H]1CC[C@H](C(=O)N2CCC([C@H]3c4ncc(Br)cc4CCc4cc(Cl)cc(Br)c43)CC2)CC1

>  <pIC50>
7.99

$$$$
>  <Molecule>
COC(=O)Cc1ccc(CC(=O)N2CCC([C@H]3c4ncc(Br)cc4CCc4cc(Cl)cc(Br)c43)CC2)cc1

>  <pIC50>
8.07

$$$$
>  <Molecule>
NC(=O)[C@H]1C[C@@H]1C(=O)N1CCC([C@H]2c3ncc(Br)cc3CCc3cc(Cl)cc(Br)c32)CC1

>  <pIC50>
8.21

$$$$
>  <Molecule>
COC(=O)CNC(=O)Cc1cccc(CC(=O)N2CCC([C@H]3c4ncc(Br)cc4CCc4cc(Cl)cc(Br)c43)CC2)c1

>  <pIC50>
8.02

$$$$
